Tested on: KRAS PDC tumor spheroids (HUVEC+MSC), viability
Assay: Anticancer human tumor 254851-301-R-J1-PDC patient-derived colon carcinoma cell line growth inhibition [KRAS2]
Conditions: curve of first compound; second compound 0.1 µM
Description: Multicellular complex tumor spheroid response to RAS pathway inhibitors in combination with a targeted agents in patient-derived cell lines with oncogenic KRAS variants from multiple cancer types A high-throughput screen of multi-cell type tumor spheroids was designed to identify active combinations of targeted small molecules and KRAS pathway inhibitors. […] Compounds. […] If the clinical Cmax for an agent had not been determined, the highest concentration tested was 10 microM. […]
measuredMetric: pIC50
Entry type: numeric. Quantity: pIC50, the -log10 of concentration in molar units.

In: GET /values?readout=pIC50&item= COc1cc(Nc2ncc3c(n2)-c2ccc(Cl)cc2C(c2c(F)cccc2OC)=NC3)ccc1C(=O)O + CNCc1ccccc1-c1csc(C(C)Nc2nc(C)nc3cc(OC)c(OC)cc23)c1
Out: 7.08

Others:
In: GET /values?readout=pIC50&item= COc1cc(Nc2ncc3c(n2)-c2ccc(Cl)cc2C(c2c(F)cccc2OC)=NC3)ccc1C(=O)O + COc1cc2nc(C)nc(NC(C)c3cc(N)cc(C(F)(F)F)c3)c2cc1OC1CCOC1
Out: 7.05

In: GET /values?readout=pIC50&item= Cn1nccc1Nc1nccc(-c2cc3c(s2)C(C)(C)N(CCN2CCOCC2)C3=O)n1 + COc1cc2nc(C)nc(NC(C)c3cc(N)cc(C(F)(F)F)c3)c2cc1OC1CCOC1
Out: 5.71

In: GET /values?readout=pIC50&item= COc1cc2nccc(Oc3ccc(NC(=O)C4(C(=O)Nc5ccc(F)cc5)CC4)cc3)c2cc1OC + C=CC(=O)N1CCN(c2nc(OCC3CCCN3C)nc3c2CCN(c2cccc4cccc(C)c24)C3)CC1CC#N
Out: 5.04

In: GET /values?readout=pIC50&item= CCN1CCN(Cc2ccc(Nc3ncc(F)c(-c4cc(F)c5nc(C)n(C(C)C)c5c4)n3)nc2)CC1 + C=CC(=O)N1CCN(c2nc(=O)n(-c3c(C)ccnc3C(C)C)c3nc(-c4c(O)cccc4F)c(F)cc23)C(C)C1
Out: 6.02

* * *

System: KRAS PDC tumor spheroids (HUVEC+MSC), viability
Assay: Anticancer human tumor 254851-301-R-J1-PDC cell line growth inhibition [KRAS2];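 note: spheroids exposed to compounds for seven days before readout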;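 for viability, T/C: 100% = DMSO vehicle control luminescence of the spheroids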
Conditions: second compound 1 µM; first compound 0.0001 µM; stronger effect = lower value
measuredMetric: viability, T/C (%)
Use % as the unit, but write only the number.

Known viability, T/C results, listed for orientation:
In: GET /values?readout=viability, T/C&item= CC(=O)Nc1cccc(-n2c(=O)n(C3CC3)c(=O)c3c(Nc4ccc(I)cc4F)n(C)c(=O)c(C)c32)c1 + CC1OCC2(CCN(c3cnc(Sc4ccnc(N)c4Cl)c(N)n3)CC2)C1N
Out: 80.7

In: GET /values?readout=viability, T/C&item= CC(=O)Nc1cccc(-n2c(=O)n(C3CC3)c(=O)c3c(Nc4ccc(I)cc4F)n(C)c(=O)c(C)c32)c1 + COc1cc2nc(C)nc(NC(C)c3cc(N)cc(C(F)(F)F)c3)c2cc1OC1CCOC1
Out: 111

In: GET /values?readout=viability, T/C&item= CC(=O)Nc1cccc(-n2c(=O)n(C3CC3)c(=O)c3c(Nc4ccc(I)cc4F)n(C)c(=O)c(C)c32)c1 + CNCc1ccccc1-c1csc(C(C)Nc2nc(C)nc3cc(OC)c(OC)cc23)c1
Out: 94.4

In: GET /values?readout=viability, T/C&item= CC(=O)Nc1cccc(-n2c(=O)n(C3CC3)c(=O)c3c(Nc4ccc(I)cc4F)n(C)c(=O)c(C)c32)c1 + C=CC(=O)N1CCN(c2nc(=O)n(-c3c(C)ccnc3C(C)C)c3nc(-c4c(O)cccc4F)c(F)cc23)C(C)C1
Out: 102

Switching to the query record.
In: GET /values?readout=viability, T/C&item= CC(=O)Nc1cccc(-n2c(=O)n(C3CC3)c(=O)c3c(Nc4ccc(I)cc4F)n(C)c(=O)c(C)c32)c1 + C=CC(=O)N1CCN(c2nc(OCC3CCCN3C)nc3c2CCN(c2cccc4cccc(C)c24)C3)CC1CC#N
Out: 106

The measured values listed here are drawn from PubChem BioAssay AID1963868.
